Quick reference: GI50 of the listed items.
Test system: A431 skin
Experiment: MTT growth inhibition assay, 72 h
Format: cell-based, human
Field: value (include unit after the number)

Solved cases below.
{"columns": ["compound", "GI50"],
 "data": [
  ["N[C@H]1CCCC[C@@H]1N.[Cl][Pt][Cl].c1cnc2c(c1)ccc1cccnc12 [PHENSS]", "480 nM"],
  ["N.N.[Cl][Pt][Cl] [Cisplatin, cis-diamminedichloroplatinum(II), reference compound]", "2400 nM"],
  ["O=C1[O][Pt]2([NH][C@@H]3CCCC[C@H]3[NH]2)[O]C1=O (relative stereo) [Oxaliplatin, reference compound]", "4100 nM"],
  ["N.N.O=C([O-])C1(C(=O)[O-])CCC1.[Pt+2] [Carboplatin, reference compound]", "24000 nM"],
  ["O=C(CCCc1ccc(N(CCCl)CCCl)cc1)[O][Pt-2]12([OH])([NH2+][C@H]3CCCC[C@@H]3[NH2+]1)[n+]1cccc3ccc4ccc[n+]2c4c31.O=[N+]([O-])[O-].O=[N+]([O-])[O-] [PCLB]", "510 nM"],
  ["Cc1c(C)c2cccnc2c2ncccc12.N[C@H]1CCCC[C@@H]1N.[Cl][Pt][Cl] [56MESS]", "29 nM"]
]}

Could you share which GI50 value was measured for Cc1cc2cccnc2c2ncccc12.N[C@H]1CCCC[C@@H]1N.[Cl][Pt][Cl] [5MESS] ? 120 nM

Could you share which GI50 value was measured for Cc1cc2cccnc2c2ncccc12.N[C@H]1CCCC[C@@H]1N.O=C([O-])CCCc1ccc(N(CCCl)CCCl)cc1.O=[N+]([O-])[O-].O=[N+]([O-])[O-].[OH-].[Pt+4] [5CLB] ? 90 nM

Could you share which GI50 value was measured for Cc1c(C)c2cccnc2c2ncccc12.N[C@H]1CCCC[C@@H]1N.O=C([O-])CCCc1ccc(N(CCCl)CCCl)cc1.O=[N+]([O-])[O-].O=[N+]([O-])[O-].[OH-].[Pt+4] [56CLB] ? 34 nM

====

Tested on: HT29 colon
Test: MTT growth inhibition assay, 72 h
Type: cell-based, human
Settings: MTT, 72 h
Quick reference: GI50 of the listed items.
Quick note: give the figure in nM, leave out the unit.

Solved cases below.
{"columns": ["compound", "observedResult"],
 "data": [
  ["N.N.[Cl][Pt][Cl] [Cisplatin, cis-diamminedichloroplatinum(II), reference compound]", 11300],
  ["O=C1[O][Pt]2([NH][C@@H]3CCCC[C@H]3[NH]2)[O]C1=O (relative stereo) [Oxaliplatin, reference compound]", 900],
  ["O=C(CCCc1ccc(N(CCCl)CCCl)cc1)[O][Pt-2]12([OH])([NH2+][C@H]3CCCC[C@@H]3[NH2+]1)[n+]1cccc3ccc4ccc[n+]2c4c31.O=[N+]([O-])[O-].O=[N+]([O-])[O-] [PCLB]", 170]
]}

Let us move to another entry and its GI50.
Could you share which GI50 value was measured for Cc1c(C)c2cccnc2c2ncccc12.N[C@H]1CCCC[C@@H]1N.[Cl][Pt][Cl] [56MESS] ? 10

====

Quick reference: GI50 of the listed items.
Tested on: U87 glioblastoma
Assay: MTT growth inhibition assay, 72 h
Assay type: cell-based, human
Quick note: give the figure in nM, leave out the unit.

Solved cases below.
{"columns": ["compound", "resultUnit", "GI50"],
 "data": [
  ["Cc1c(C)c2cccnc2c2ncccc12.N[C@H]1CCCC[C@@H]1N.O=C([O-])CCCc1ccc(N(CCCl)CCCl)cc1.O=[N+]([O-])[O-].O=[N+]([O-])[O-].[OH-].[Pt+4]", "nM", 93],
  ["N[C@H]1CCCC[C@@H]1N.[Cl][Pt][Cl].c1cnc2c(c1)ccc1cccnc12", "nM", 980],
  ["Cc1cc2cccnc2c2ncccc12.N[C@H]1CCCC[C@@H]1N.O=C([O-])CCCc1ccc(N(CCCl)CCCl)cc1.O=[N+]([O-])[O-].O=[N+]([O-])[O-].[OH-].[Pt+4]", "nM", 250],
  ["O=C(CCCc1ccc(N(CCCl)CCCl)cc1)[O][Pt-2]12([OH])([NH2+][C@H]3CCCC[C@@H]3[NH2+]1)[n+]1cccc3ccc4ccc[n+]2c4c31.O=[N+]([O-])[O-].O=[N+]([O-])[O-]", "nM", 1200],
  ["Cc1cc2cccnc2c2ncccc12.N[C@H]1CCCC[C@@H]1N.[Cl][Pt][Cl]", "nM", 320],
  ["Cc1c(C)c2cccnc2c2ncccc12.N[C@H]1CCCC[C@@H]1N.[Cl][Pt][Cl]", "nM", 35],
  ["O=C1[O][Pt]2([NH][C@@H]3CCCC[C@H]3[NH]2)[O]C1=O (relative stereo) [Oxaliplatin, reference compound]", "nM", 1800]
]}

Could you share which GI50 value was measured for N.N.[Cl][Pt][Cl] [Cisplatin, cis-diamminedichloroplatinum(II), reference compound] ? 3800
